The following molecules are listed with their measured IC50 values.
- Target Entity: human KCNK13 (Homo sapiens)
- Sequence (Q9HB14 1-408): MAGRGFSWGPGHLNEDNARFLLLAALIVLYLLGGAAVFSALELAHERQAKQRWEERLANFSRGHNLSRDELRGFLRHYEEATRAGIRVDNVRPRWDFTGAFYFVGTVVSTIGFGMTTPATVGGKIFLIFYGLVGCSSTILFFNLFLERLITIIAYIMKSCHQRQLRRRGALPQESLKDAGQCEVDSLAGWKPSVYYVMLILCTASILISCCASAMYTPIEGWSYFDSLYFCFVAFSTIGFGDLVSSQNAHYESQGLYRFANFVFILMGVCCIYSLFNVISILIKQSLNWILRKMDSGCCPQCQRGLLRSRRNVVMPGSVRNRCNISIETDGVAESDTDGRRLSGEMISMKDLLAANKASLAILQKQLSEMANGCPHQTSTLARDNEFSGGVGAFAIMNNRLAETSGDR
- Procedure Text: KCNK13 antagonist activity, thallium flux FLIPR assay in HEK 293 cells stably expressing human KCNK13
- Details: HEK 293 cells stably expressing human KCNK13, Tl+ sensitive dye, compound 15 min before thallium sulfate, ten point curves; read-out: hKCNK13 IC50

# example entries with known answers
INSERT INTO assay_data (molecule, target_entity, measured_attribute, reported_result) VALUES
  ('COc1ncc(F)cc1C(=O)N(C)C(C)c1ccc(F)cc1C#N (single isomer, unassigned) [Example 64]', 'human KCNK13 (Homo sapiens)', 'IC50', '≤ 5 µM'),
  ('COc1ncc(F)cc1C(=O)N(C)C(C)c1ccc(F)cc1C#N (single isomer, unassigned) [Example 65]', 'human KCNK13 (Homo sapiens)', 'IC50', '≤ 1 µM');

Kindly review the next molecule as well.
Tell us which IC50 value is on record for CN(Cc1cc(F)cc(F)c1)S(=O)(=O)c1cc(F)cnc1OC(F)F [Example 103]
≤ 0.2 µM

* * *

- Target Entity: human KCNK13 (Homo sapiens)
- Procedure Text: KCNK13 antagonist activity, thallium flux FLIPR assay in HEK 293 cells stably expressing human KCNK13
- Details: HEK 293 cells stably expressing human KCNK13, Tl+ sensitive dye, compound 15 min before thallium sulfate, ten point curves; read-out: hKCNK13 IC50
pIC50: −log10 of the molar value.
Measured Attribute: pIC50

INSERT INTO measurements (compound, measured_attribute, reported_result) VALUES
  ('CC(c1cccc(F)c1)N(C)C(=O)c1cc(F)cnc1OC(F)F (single isomer, unassigned) [Example 89]', 'pIC50', '≥ 6.70'),
  ('CCN(Cc1cccc(F)c1)S(=O)(=O)c1cc(F)cnc1OC(F)F', 'pIC50', '≥ 6.00');

Return pIC50 for the following compound: COc1ncc(F)cc1C(=O)N(C)C(C)c1ccc(F)cc1F (single isomer, unassigned) [Example 68]
≥ 5.30

Tell me its pIC50 given CN(Cc1cccc(OC(F)(F)F)c1)C(=O)c1cc(Cl)cnc1OC(F)F as the entry.
≥ 6.00

Look up and report measured pIC50 for this entry: COC(=O)c1ccc(F)cc1CN(C)C(=O)c1cc(F)cnc1OC
≥ 6.30

Supply pIC50 value. Item: COc1ncc(Cl)cc1C(=O)N(C)C(C)c1ccc(F)cc1C#N (single isomer, unassigned) [Example 66]
≥ 5.30

These entries and their values trace back to patent US20260167632A1.
